The measured values listed here are drawn from patent US20190381037A1.

Molecular target: human GPR40 receptor (Homo sapiens)
Sequence (O14842 whole entry): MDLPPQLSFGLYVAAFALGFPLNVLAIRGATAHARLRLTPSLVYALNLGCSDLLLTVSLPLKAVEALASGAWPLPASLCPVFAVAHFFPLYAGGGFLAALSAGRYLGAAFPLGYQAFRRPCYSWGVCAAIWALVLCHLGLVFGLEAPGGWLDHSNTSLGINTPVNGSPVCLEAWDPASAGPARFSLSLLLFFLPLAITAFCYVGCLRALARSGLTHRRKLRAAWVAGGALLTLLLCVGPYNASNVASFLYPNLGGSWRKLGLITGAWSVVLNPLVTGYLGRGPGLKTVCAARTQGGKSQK
Assay: IP1 accumulation measurements using the IPOne assay system
Details: 1321N1 cells stably expressing human GPR40 receptor; stimulated 1 h at 37° C.
Rule: measured EC50 below 7 nM gets TRUE; anything equal to or greater than 7 nM gets FALSE.

- molecule: "Cc1cc(-c2ccnn2C)cc(C)c1-c1cccc(COc2cnc([C@H]3C[C@@H]3C(=O)O)cn2)c1 [Example 11]"
  discrete_label: "TRUE"

INPUT: For Cc1cnc(-c2cc(C)c(-c3ccc(F)c(COc4cnc([C@H]5C[C@@H]5C(=O)O)cn4)c3)c(C)c2)nc1 [Example 16] , is the recorded EC50 below the cut-off of 7 nM?
OUTPUT: TRUE
